test system: KM-20L2; test: NCI tumour cell line growth inhibition, 48 h
Calls of active or inactive are those of the source. Cut-off read from the data, not from the text of the source: active = GI50 up to about 1.1 µM and inactive = higher.
Select the matching outcome among Yes for active, No for inactive

compound="c1ccc2c(c1)N=C(c1cccc3ccccc13)CC(c1cccc3ccccc13)S2 (centres undefined)" assigned_class=No
compound="Cc1ccc(NC(=O)OCC(COc2ccc(Cl)cc2Cl)OC(=O)Nc2ccc(C)cc2)cc1 (centres undefined)" assigned_class=No
compound=O=C1[C@@H]2C3C=CC([C@H]4C(=O)N(CO)C(=O)[C@@H]34)[C@@H]2C(=O)N1CO assigned_class=No
compound=COc1cc(/C=C/c2ccc(OC)c(OC)c2)oc(=O)c1 assigned_class=No
compound="COc1ccc(C(O)/C(=C/n2ccnc2)c2ccccc2)cc1OC (centres undefined)" assigned_class=No

Outcome? C[C@@H](NC1CCCC[C@@H]1O)c1ccccc1 (some centres undefined)
No

Outcome? CC(=O)OC(C[C@H](C)[C@@H]1CC[C@]2(C)C3=CCC4C(C)(C)C(=O)CC[C@]4(C)C3CCC12C)C1OC1(C)C (some centres undefined)
No

Outcome? O=C1CC(O)C=C1Nc1ccc(Cl)cc1 (centres undefined)
Yes

Outcome? CC(=O)OC1CC[C@@]2(C)C(CC[C@]3(C)C2CC=C2[C@@H]4C(C)[C@H](C)CCC4(C)CCC23C)[C@@]1(C)C(=O)O (some centres undefined)
No

====

test system: RPMI-8226; assay: NCI tumour cell line growth inhibition, 48 h
Activity calls are given as the source filed them. Cut-off read from the data, not from the text of the source: active = GI50 up to about 1.1 µM and inactive = higher.
value type: GI50

Worked cases, answers included:
compound="C=CCNC(=O)NCCCCC(NC(C)=O)C(=O)NCc1ccccc1 (stereo unspecified)" result="> 100 µM (inactive)"
compound=CC(=O)c1c2c(cc3c1CCC3)CCC2 result="76 µM (inactive)"
compound="O=C1NC2C3CC(OCc4ccccc4)(OCc4ccccc4)C2OC3O1 (stereo unspecified)" result="> 50 µM (inactive)"
compound="CN(C(=O)C12C3C4C5C3C1(C(=O)C13C6C7C8C6C1C8C73)C5C42)C(C)(C)C (stereo unspecified)" result="> 27.3 µM (inactive)"

Given the entry N#CC1=C(S)N(C2OC(CO)C(O)C(O)C2O)C(c2ccccc2)=CC1c1ccco1 (stereo unspecified) , report its measured GI50.
23.2 µM (inactive)

Given the entry CCOC(=O)C1=C(C)N2CCCOC2(C)C(C(=O)OC)C1c1cccc([N+](=O)[O-])c1 (stereo unspecified) , report its measured GI50.
35 µM (inactive)

Given the entry `[N-]=[N+]=C(C(=O)OCC#CCOC(=O)C(=[N+]=[N-])S(=O)(=O)c1ccccc1)S(=O)(=O)c1ccccc1` , report its measured GI50.
> 10 µM (inactive)

Given the entry COc1ccccc1/C=C\C(=O)C1COCN1 (stereo unspecified) , report its measured GI50.
2.24 µM (inactive)

Given the entry c1ccc2c(c1)N=C(c1cccc3ccccc13)CC(c1cccc3ccccc13)S2 (stereo unspecified) , report its measured GI50.
1.9 µM (inactive)

Given the entry `CC(C)=C/C(CC(O)(C(F)(F)F)C(F)(F)F)=N\O` , report its measured GI50.
> 100 µM (inactive)

Given the entry CC(=O)c1c2c(cc3c1CC1(C3)Cc3cc4c(c(C(=O)O)c3C1)CCCC4)CCCC2.CC(N)c1ccccc1 (stereo unspecified) , report its measured GI50.
31.6 µM (inactive)

Given the entry CC(=O)OCC1OC(n2c(Br)nc3c2c(=O)n(C)c(=O)n3C)C(OC(C)=O)C1OC(C)=O (stereo unspecified) , report its measured GI50.
27.9 µM (inactive)

Given the entry `COC(=O)c1c(C)c2c(c(C)c1O)OC(=O)c1c(C)cc(O)c(C=O)c1O2` , report its measured GI50.
> 100 µM (inactive)

Given the entry `NCCCc1ccc2oc3ccccc3c2c1` , report its measured GI50.
26.4 µM (inactive)

Given the entry `N=C(N)NNC(=O)C(=O)O` , report its measured GI50.
> 100 µM (inactive)

Given the entry CCOC1=C2N=C(C(CC)c3ccc(F)cc3)N=C2C(=O)c2ccccc21 (stereo unspecified) , report its measured GI50.
23.8 µM (inactive)

Given the entry `C=C1CN2CC(=C)CN(C1)CS(=O)(=O)N1CC(=C)CN(CC(=C)C1)S(=O)(=O)N1CC(=C)CN(CC(=C)C1)S(=O)(=O)C2` , report its measured GI50.
39.4 µM (inactive)

Given the entry `CC(C)(C)c1cc(OCc2nnc3sc(S)nn23)c(Cl)cc1OCc1nnc2sc(S)nn12` , report its measured GI50.
30.7 µM (inactive)

Given the entry COc1ccc(C(O)/C(=C/n2ccnc2)c2ccccc2)cc1OC (stereo unspecified) , report its measured GI50.
> 100 µM (inactive)

Given the entry `CCOP(=O)(OCC)c1ccc(=O)[nH]c1-c1cccs1` , report its measured GI50.
> 100 µM (inactive)

Given the entry `O=C(C=P(c1ccccc1)(c1ccccc1)c1ccccc1)c1ccccc1-c1ccccc1C(=O)C=P(c1ccccc1)(c1ccccc1)c1ccccc1` , report its measured GI50.
< 0.01 µM (active)

Given the entry `C/C(=N\Nc1nc2ccccc2s1)c1ccc2ccccc2n1` , report its measured GI50.
18.5 µM (inactive)

Given the entry CCCCCCCCCCCCCCCCSCC(COC)COP(=O)([O-])OCC[N+](C)(C)C (stereo unspecified) , report its measured GI50.
2.49 µM (inactive)

Reference for the values: ChEMBL document CHEMBL1201862
